target.entity: T1, genetically modified and chemically inactivated C. difficile toxoid A (Clostridium difficile, UniProt P16154 2-2710)
T1 construct: also called TxdA; the toxoid
procedure.text: ITC
quantity.name: Stoichiometry
Could you respond with only the numeric value?

hCDIFA-24 (antibody, V domains shown) VH: QVQLVQSGGGVVQPGRSLRLSCAASGFSFSTHGMHWVRQAPGKGLEWVAVISYDGSNKYYADSVKGRFTISRDNSKNTVYLQMNSLRAEDTAVFYCAKPRDNYYYYGMDVWGQGTTVTVSS VL: AIRMTQSPSSLSASTGNRVTITCRASQGISSYLAWYQQKPGKAPNLLIYAASTLQSGVPSRFTGSGSGTDFTLTISRLHSENFATYYCQQYFNYPRTFGQGTRLEIKR = 1.07
hCDIFA-37 (antibody, V domains shown) VH: QVQLLESGPGLVKTSGTLSLTCSVSGDSVSTNNWWTWVRQPPGKGLEWIGEIYYNGNTIYNPSFKSRVTISVNRSKNHFSLKLNSVTAADRAVYYCARRTWNDVGPFDYWGQGILVTVSS VL: DIVMTQSPSSLSASIGDRVIITCRASQNINRYLNWYQQTAGKAPKLLIYGTSNLQSGVPSRFSGSGSGSGTDFTLTISSLQPEDFATYYCHQSYRTPQTFGQGTKLEIKR = 0.95
hCDIFA-11 (antibody, V domains shown) VH: QVQLVQSATEMKKPGASVKVSCKASGYTFSDSYMHWVRQAPGQGLEWMGWINPDSGGTNYAQKFKGWVTMTRDTSINTVYMELRRLRSDDTAVYYCARDGGDYARHSLDYWGQGTLVTVSS VL: DVVMTQSPGTLSLSPGERVTLSCRASQSVNSDYLVWYQQKPGQAPRLLIYGASSRATGIPDRFSGSGSGPDFTLTISRLEPEDVAVYYCQLYGGLFTFGQGTRLEIKR = 0.97

q: What does the data say about its Stoichiometry? Entry: hCDIFA-15 (antibody, V domains shown) VH: QVQLVQSGAEVKKPGASVKISCKASGYTFVRYYMHWVRQAPGQGLEWMGLIDPSGGSTRYAQRFQGRVTMTRDTSTSTVYMELSGLRSEDTAVYYCARDGPFGGLSGGNWFDPWGQGTLVTVSS VL: AIRMTQSPGTLSLSPGERATLSCRASQSLSFSYLAWYQQKPGQAPRLLIYGASSRATGIPDRFSGSGSGTDFALTISRLEPEDFAVYYCQQYGTSPLTFGGGTKVDIKR
a: 1.68

q: Field request: Stoichiometry | item: hCDIFA-7 (antibody, V domains shown) VH: QVQLRESGPGLVKPSETLSLTCTVSGGSVSNYYWSWIRQPPGKGLEWIGYIYSSGTINFNPSLKGRVTISGDTSKNQFSLKLSSVTAADTAVYYCARSGKWALGAFDIWGQGTMVTVSS VL: QSALTQPPSVSGAPGQRVTISCTGSSSNIGTGYDVHWYQQLPGKVPKLLIHGNGDRPSGVPDRFSASKSGTSASLAITGLQSEDEGDYYCQSYDNSLSGLVVFGGGTKLTVLG
a: 2.94

q: Form field: reported Stoichiometry of hCDIFA-45 (antibody, V domains shown) VH: QVQLVQSGPEVRKPGTSVKFSCKASGFTFTSAAMQWVRQARGQRLEWIGWIVVDSGNTNYAQKFQERVTITRDMSTSTVYMELSSLRSEDTAMYYCAASRGIVGTRGLFDSWGQGTLVTVSS VL: EIVLTQSPSSLSSSVGDRVTITCRASQSIRNYLNWYQQKPGKAPKLLIYGASSLQSGVPPRFSGSGFGTDFTLTISNLQPEDFASYSCQQTYSTPLTFGGGTKLEIKR
a: 0.98
